B1: TPR t1 (parent)
chain: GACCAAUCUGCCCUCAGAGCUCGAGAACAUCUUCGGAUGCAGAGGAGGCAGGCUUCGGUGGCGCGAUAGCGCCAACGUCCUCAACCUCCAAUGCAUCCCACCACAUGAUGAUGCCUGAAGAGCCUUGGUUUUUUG

Variants of: B1
test description: polymerase ribozyme fitness, log enrichment relative to wild type (log ratio); higher = more active; in vitro selection for triplet polymerase activity
Would you mind telling me the reported polymerase ribozyme fitness (log ratio) of each entry?
In your answer, state the number alone without any accompanying words.

Respond only with polymerase ribozyme fitness (log ratio) recorded for G48A C104U
-1.25

Check the records and state polymerase ribozyme fitness (log ratio) for C40A G71U G117C G120C
-5.63

Please give the documented polymerase ribozyme fitness (log ratio) of C56A G58C C62U C101A C104U
-1.18

Respond only with polymerase ribozyme fitness (log ratio) recorded for U92C G120U
0.184

Provide measured polymerase ribozyme fitness (log ratio) value, entry: G36A A66C G120U
-1.74

Assign polymerase ribozyme fitness (log ratio) to the following record: C4U U59A C62A A100C U106A C124G
-0.734

Look up and state reported polymerase ribozyme fitness (log ratio) for U7A C11A U81A
-1.32

Using the record for G36U U125A U133A , state its measured polymerase ribozyme fitness (log ratio).
-2.46

Using known records, supply polymerase ribozyme fitness (log ratio) for C11G A18U G42C C89A
-0.965

Consider the variant A26U C79G C124U . State its measured polymerase ribozyme fitness (log ratio).
-4.91

For C13A C73A G120A C123A , write its polymerase ribozyme fitness (log ratio).
-0.951

Given the variant G17C C20A G63U , write its reported polymerase ribozyme fitness (log ratio).
-4.87

Look up polymerase ribozyme fitness (log ratio) of A41U G120U and report it.
-1.11

Specify measured polymerase ribozyme fitness (log ratio) for A83G A84U C102A U112A G127U .
-3.04

Fill in polymerase ribozyme fitness (log ratio) for record G93A G128C
-2.72

Assign polymerase ribozyme fitness (log ratio) to the following record: C102A G120U U130G
-2.39

Give me measured polymerase ribozyme fitness (log ratio), please, for this variant: A6C A26G U38G C53G
-5.37

Name the recorded polymerase ribozyme fitness (log ratio) of the item G48A C89U C124U in your answer.
0.551

Give the value of polymerase ribozyme fitness (log ratio) reported for the following: U14A U33G C34A G47C C70U U112A G127A
-6.98

Complete the entry with polymerase ribozyme fitness (log ratio) for A26U G120U
-3.12

Provide only the value of recorded polymerase ribozyme fitness (log ratio) for G57U U78A G117A G135U
-2.21

Name the recorded polymerase ribozyme fitness (log ratio) of the item U21C C22A C88U in your answer.
-4.68

Provide polymerase ribozyme fitness (log ratio) value for the following variant: U14C C22U U32C
-5.53

Consider the variant A41C A74G C98U and give its recorded polymerase ribozyme fitness (log ratio).
-1.89

Annotate the variant U59A C101A C114A with its measured polymerase ribozyme fitness (log ratio).
-2.95

# return recorded polymerase ribozyme fitness (log ratio) for entry C49A G93U U125A U131G
-2.24

Identify polymerase ribozyme fitness (log ratio) associated with the variant G36U U116A
-4.2

Please report the measured polymerase ribozyme fitness (log ratio) for A24G G128A U130G
-4.18

Report measured polymerase ribozyme fitness (log ratio); entry is A27U C62U A74G
-7.73

Give a short answer stating reported polymerase ribozyme fitness (log ratio) for U55A U87A G122A .
-0.825

Return reported polymerase ribozyme fitness (log ratio). Input variant: A5C G71U C82A C101G
-2.98

Give recorded polymerase ribozyme fitness (log ratio). C72U C79U U96A G113U
-4.45

Tell me its polymerase ribozyme fitness (log ratio) given G58C C70U G110C A121U as the entry.
-5.63

Identify polymerase ribozyme fitness (log ratio) associated with the variant C12A C62G U78C C79A C85G
-7.47

Give polymerase ribozyme fitness (log ratio) for C11U A50G
-0.405

Name the recorded polymerase ribozyme fitness (log ratio) of the item C13U G39U U59A G128U in your answer.
-1.64

Name the recorded polymerase ribozyme fitness (log ratio) of the item G63C C88U in your answer.
-1.29

Determine from records and report polymerase ribozyme fitness (log ratio) for A41C A74U U87C
-0.35

Return value of polymerase ribozyme fitness (log ratio) for input C79A A83G C115G C123A U131G , no commentary.
-4.48

Return the recorded polymerase ribozyme fitness (log ratio) value; entry: C72U G120U
-0.256

Identify measured polymerase ribozyme fitness (log ratio) associated with G10A G47A A68G U109C C123G
-6.84

Answer with the recorded polymerase ribozyme fitness (log ratio) of C40U G60A only.
-0.683

Give the reported polymerase ribozyme fitness (log ratio) for this variant. C8G A18C G36U C72A U78G C82A C85G
-5.25

Note down polymerase ribozyme fitness (log ratio) recorded for C72U U133A
-0.682

Using known records, supply polymerase ribozyme fitness (log ratio) for G47U C104A U129A
-5.96

Provide polymerase ribozyme fitness (log ratio) value for the following variant: G71A G120C G122A
-1.43

Note polymerase ribozyme fitness (log ratio) for the variant shown: C53U G61U C114U
-2.37

Supply recorded polymerase ribozyme fitness (log ratio) for U9G C97A here.
-4.53

Identify measured polymerase ribozyme fitness (log ratio) corresponding to A43G A50U G71U
-5.61

Check the records and state polymerase ribozyme fitness (log ratio) for C11G A43G U59A
-1.75

For the variant A2C G19A A29C A41G A43U C64G G113A C123A U126G , give its measured polymerase ribozyme fitness (log ratio) value.
-5.93

Please supply the value of reported polymerase ribozyme fitness (log ratio) for the item U9G C123U
0.831

Please give the documented polymerase ribozyme fitness (log ratio) of A18C G39U C101A
-3.85

Give reported polymerase ribozyme fitness (log ratio) value for C22A G44C
-4.8

Please give the documented polymerase ribozyme fitness (log ratio) of G113U U133C
-2.64

Determine from records and report polymerase ribozyme fitness (log ratio) for G19C A41C C70G G120U
-6.52

State its polymerase ribozyme fitness (log ratio): C73A G120U
0.347

State, in one line, measured polymerase ribozyme fitness (log ratio) of C53A G63A U78C
-2.46

Please report polymerase ribozyme fitness (log ratio) for the following variant: C20U C28G G69C G110U
-5.16

Specify measured polymerase ribozyme fitness (log ratio) for G65U G71A .
-4.69

Read off the recorded polymerase ribozyme fitness (log ratio) for G39U G52A G63U
-2.37

Specify polymerase ribozyme fitness (log ratio) for C31A C56A C98A and stop.
-5.09

Determine its reported polymerase ribozyme fitness (log ratio): A27C C82G G110U
-5.23

State its polymerase ribozyme fitness (log ratio) for this variant: G17U G63U U133A
-3.87

Give a short answer stating reported polymerase ribozyme fitness (log ratio) for A18C U92G .
-2.86

Quote polymerase ribozyme fitness (log ratio) reported for G69U A100U please.
-0.417

Give reported polymerase ribozyme fitness (log ratio) value for A2G C13U C53U
-0.428

Specify measured polymerase ribozyme fitness (log ratio) for C28U A41U G48A .
-5.18

For G19A C76U C124U , write its polymerase ribozyme fitness (log ratio).
-1.46

Determine from records and report polymerase ribozyme fitness (log ratio) for A41C U55A C102U
-3.43

Give polymerase ribozyme fitness (log ratio) for the following variant: G39U C86A U106A
-2.01

Using the record for C15U G120U , state its measured polymerase ribozyme fitness (log ratio).
-0.697

For the variant C115U C124G , report polymerase ribozyme fitness (log ratio).
0.35

For A29G G69C G120A , write its polymerase ribozyme fitness (log ratio).
-2.54

Provide only the value of recorded polymerase ribozyme fitness (log ratio) for G51A A83C
-3.73

Specify polymerase ribozyme fitness (log ratio) for C62A C101A C114A and stop.
-3.81

Provide measured polymerase ribozyme fitness (log ratio) value, entry: C56U A90U
-0.55

Report polymerase ribozyme fitness (log ratio), nothing else, for this variant: A37C G63U G122U
-2.81

Report polymerase ribozyme fitness (log ratio) for C97G A119G
-2.68

Supply polymerase ribozyme fitness (log ratio) value. Item: C31U C72U
-4.57

For the variant G10C C13G G61A U106G A118U , give its reported polymerase ribozyme fitness (log ratio).
-2.68

Answer with the recorded polymerase ribozyme fitness (log ratio) for the variant listed here: G48C C62A G65U U78C U130C
-4.95

Hello, please tell me recorded polymerase ribozyme fitness (log ratio) for this one: G57U C72U A83U A111U
-4.12

Input C3A U33A G48U A121C C124G , output reported polymerase ribozyme fitness (log ratio).
-4.93

Determine from records and report polymerase ribozyme fitness (log ratio) for G61C C98U C123G U133A G135U
-1.22

Please list polymerase ribozyme fitness (log ratio) recorded for the variant G63U C94G
-1.4

Give reported polymerase ribozyme fitness (log ratio) value for G52U C72G C79A G110A C123A
-3.69

# return recorded polymerase ribozyme fitness (log ratio) for input C15A C56U U59C C64U A84U C98G G110A
-7.69

Given C102A U125G , respond with its polymerase ribozyme fitness (log ratio).
-2.8

Annotate the variant A103C U132A with its measured polymerase ribozyme fitness (log ratio).
-4.12

Read off the recorded polymerase ribozyme fitness (log ratio) for C40A G69C A105G
-6.71
